# maps each entry to its kcat of FX activation by FIXa in the Xase complex (FVIIIa, PC/PS vesicles, Ca2+)
molecular target: Factor X (FX), P00742
Sequence (P00742 whole entry, looked up): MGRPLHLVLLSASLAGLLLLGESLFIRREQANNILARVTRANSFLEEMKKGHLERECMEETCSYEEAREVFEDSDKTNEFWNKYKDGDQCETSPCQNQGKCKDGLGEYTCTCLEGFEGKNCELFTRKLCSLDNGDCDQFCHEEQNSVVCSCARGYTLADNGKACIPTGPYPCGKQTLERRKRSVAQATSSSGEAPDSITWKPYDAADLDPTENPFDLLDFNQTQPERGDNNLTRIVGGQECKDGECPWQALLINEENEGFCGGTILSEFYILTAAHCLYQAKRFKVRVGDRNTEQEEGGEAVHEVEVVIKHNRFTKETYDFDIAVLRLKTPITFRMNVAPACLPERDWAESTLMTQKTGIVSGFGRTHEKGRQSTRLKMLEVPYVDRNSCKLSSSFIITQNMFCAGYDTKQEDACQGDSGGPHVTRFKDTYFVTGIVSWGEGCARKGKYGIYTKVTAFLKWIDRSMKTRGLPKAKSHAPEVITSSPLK
Dear colleague, please return just the value in s⁻¹, with no unit written.

- PROTEIN: "FIXa-K247N/N249S/R318Y/R403E/E410N (protein) chain 1: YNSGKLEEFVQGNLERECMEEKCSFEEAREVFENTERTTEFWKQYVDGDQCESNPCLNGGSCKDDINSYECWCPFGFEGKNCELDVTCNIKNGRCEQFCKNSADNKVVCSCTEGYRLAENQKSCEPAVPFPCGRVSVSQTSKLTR chain 2: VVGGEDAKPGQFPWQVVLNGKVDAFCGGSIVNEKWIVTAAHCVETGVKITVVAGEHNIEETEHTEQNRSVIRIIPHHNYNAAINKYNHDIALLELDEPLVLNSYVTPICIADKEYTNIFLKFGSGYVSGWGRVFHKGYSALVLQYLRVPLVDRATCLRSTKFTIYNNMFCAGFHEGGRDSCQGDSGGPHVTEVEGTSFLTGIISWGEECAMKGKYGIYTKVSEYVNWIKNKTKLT"
  UNITS: "s⁻¹"
  RECORDED_VALUE: 2.9

Kindly review the next protein as well.
The protein listed as FIXa-R338E/T343R/R403E/E410N (protein) chain 1: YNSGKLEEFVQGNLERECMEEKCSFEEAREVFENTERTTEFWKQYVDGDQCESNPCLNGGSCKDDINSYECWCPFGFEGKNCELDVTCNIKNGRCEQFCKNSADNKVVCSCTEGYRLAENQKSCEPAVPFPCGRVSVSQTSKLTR chain 2: VVGGEDAKPGQFPWQVVLNGKVDAFCGGSIVNEKWIVTAAHCVETGVKITVVAGEHNIEETEHTEQKRNVIRIIPHHNYNAAINKYNHDIALLELDEPLVLNSYVTPICIADKEYTNIFLKFGSGYVSGWGRVFHKGRSALVLQYLRVPLVDRATCLESTKFRIYNNMFCAGFHEGGRDSCQGDSGGPHVTEVEGTSFLTGIISWGEECAMKGKYGIYTKVSEYVNWIKNKTKLT has a reported kcat of FX activation by FIXa in the Xase complex (FVIIIa, PC/PS vesicles, Ca2+) of 9.8
